Just for reference, the supplement of paper PMC8728848 is where these values come from.

target: Neu5Gc(a2-3)Gal(b1-4)GlcNAc(b1-3)Gal(b1-4)GlcNAc(b1-2)Man(a1-3)[Neu5Gc(a2-3)Gal(b1-4)GlcNAc(b1-3)Gal(b1-4)GlcNAc(b1-2)Man(a1-6)]Man(b1-4)GlcNAc(b1-4)GlcNAc
experimental_details: glycan array binding signal (z-score within array); higher = stronger binding
conditions_used: glycan notation: IUPAC condensed, linker removed
Shown is part of a subset that was picked to be rich in the strongest signals.
property_name: glycan array binding signal (z-score)

Examples from the recorded data:
* Nc3LysM-2 (protein) AHVLQARQSVSCDFATAANTGDTCASFAAAWGITEAAFAKLNPGVSCPGNLIAGSEYCVIGTVSTGAPTTTKAATTSTTPPTTTTTTKATTLSTSTTSVSPTGPSPQMPSITSTCNKFYQVQSGDGCWSIEQAQGVSASDFMAWNKAVDAQCDNLWLGYYVCVGVKGGSSPPPTTTTKPASSSAPTPQMPNTVSNCKKFHKVVSGDGCWAIEQAAGISASDFAKWNPYVDAACDNLWLGYYVCIGV | -0.459
* Arath Fbox LD (Arabidopsis thaliana) (protein) EFSVWLEKASGKRCLMLSAMNLSIIWGDNPQYWQWIPIPESRFEKVAKLRDVCWFEIRGRTNTRVLSPRTRYSAYIVFKGVDKCYGFQNVAIEAAVGVVGQEPSRRLICFSEAIRRGRRNVVKPKQREDGWMEIELGEFFNDGGIMDNDEIEMSALETKQLNRKCGLIIQGIEIRPAKILAAASFLEQKLISEEDLNSAVDHHHHHH | -0.554
* EPL1 (Trichoderma atroviride), A0PCX2 (protein) MQLSNLFKLALFTAAVSADTVSYDTGYDDASRSLTVVSCSDGTNGLITRYHWQTQGQIPRFPYIGGAQAVAGWNSPNCGTCWKLTYSGKTIYVLAIDHTAAGFNIGLDAMNALTNGNAVALGRVSATASQVAVSNCGL | 0.362

Request the reported glycan array binding signal (z-score) associated with EEA (Euonymus europaeus) (protein) MASTIIATGPTYRVYCRAAPNYNMIVGKGVAFLAPIDETNELQYWYKDDTYSYIKDEAGLPAFSLVNKATGLTLKHSNHHPVPVKLVTYNPNVVDESVLWSQADDRGDGYSAIRSLTNPASHLEAAPLNDWSYNGAIIMGGVWIDAYNQQWKIEPHTG
-0.183

Can you check Tamarinin (protein) CDDSARAGNIVVYWGQGGSDNSEGSLKEACKSGHYNMIVLQQLIVYDDGRDPDLNLGAHCSDCTKLEEQIKYCQNKDIKILLQIGQVVPTQEDVKDVTKNLSEYLLKNFFSGKSGPLGEVYLNGIDIASVPEGNNLKFDELVEALNDSSTERRIYLSASPLCVYPDYYLNKAIQTEKLDFLFVQFFYQNPCIYTEGNPENLFEAMKTWTKNVPESMIFMALPATPNLDGYIPPRVLNKEILPAVSEASNFAGVMIFDRYFDRFRKYSSKIK next?
-0.36

Also Langerin K313I (Homo sapiens), Q9UJ71 (protein) STLNAQIPELKSDLEKASALNTKIRALQGSLENMSKLLKRQNDILQVVSQGWKYFKGNFYYFSLIPKTWYSAEQFCVSRNSHLTSVTSESEQEFLYKTAGGLIYWIGLTKAGMEGDWSWVDDTPFNKVQSARFWIPGEPNNAGNNEHCGNIKAPSLQAWNDAPCDITFLFICKRPYVPSEP , if possible.
0.158
